assay_notes: Stability in cryopreserved hepatocytes, human
We use 0.1 µM as the dividing line for Trep Concentration (μM) 30 min: on or above the line is met, below is not met.

>>> class_name("CCCCCC(CCC1C(O)CC2Cc3c(cccc3OCC(=O)O)CC21)OC(=O)c1ccc(C(F)(F)F)cc1 (centres unmarked)")
"met"
>>> class_name("CCCCCC(CCC1C(O)CC2Cc3c(cccc3OCC(=O)O)CC21)OC(=O)N1CCC(O)CC1 (centres unmarked)")
"not met"
>>> class_name("CCCCCC(CCC1C(O)CC2Cc3c(cccc3OCC(=O)O)CC21)OC(=O)COc1ccccc1 (centres unmarked)")
"met"
>>> class_name("CCCCCC(CCC1C(O)CC2Cc3c(cccc3OCC(=O)O)CC21)OC (centres unmarked)")
"not met"

---

assay_notes: Stability in liver microsomes, rat
assay_readout: Trep Concentration 60 min

>>> recorded_result("CCCCCC(CCC1C(O)CC2Cc3c(cccc3OCC(=O)O)CC21)OC(=O)C12CC3CC(CC(C3)C1)C2 (stereo not shown)")
"0.0527 µM"
>>> recorded_result("CCCCCC(CCC1C(O)CC2Cc3c(cccc3OCC(=O)O)CC21)OC(=O)CCC(=O)O (stereo not shown)")
"0.54 µM"
>>> recorded_result("CCCCCC(CCC1C(O)CC2Cc3c(cccc3OCC(=O)O)CC21)OC(=O)c1cccc(O)c1 (stereo not shown)")
"0.0609 µM"
>>> recorded_result("CCCCCC(CCC1C(O)CC2Cc3c(cccc3OCC(=O)O)CC21)OCCN1CCOCC1 (stereo not shown)")
"0.00552 µM"

---

assay_notes: Stability in cryopreserved hepatocytes, human
Method: Mixed-gender human cryopreserved hepatocytes, male Sprague-Dawley rat cryopreserved hepatocytes, and male Beagle dog cryopreserved hepatocytes were purchased from XenoTech. […] An aliquot of the supernatant was then diluted with water and analyzed by LC-MS/MS against calibration standards prepared in a matched matrix. […] All test article samples were analyzed for the dosed prodrugs as well as the drug, treprostinil. […]
assay_readout: Treprostinil Concentration 0 min (µM)

>>> recorded_result("CCCCCC(CCC1C(O)CC2Cc3c(cccc3OCC(=O)O)CC21)OP(=O)(O)O (stereo not shown) [Prodrug VI]")
0
>>> recorded_result("CCCCCC(CCC1C(OC(=O)CC)CC2Cc3c(cccc3OCC(=O)O)CC21)OC(=O)CC (stereo not shown) [Prodrug LXX, treprostinil dipropionate]")
0.00542
>>> recorded_result("CCCCCC(CCC1C(O)CC2Cc3c(cccc3OCC(=O)O)CC21)OC(=O)CC (stereo not shown) [Prodrug LV]")
0.113
>>> recorded_result("CCCCCC(CCC1C(O)CC2Cc3c(cccc3OCC(=O)O)CC21)OC(C)=O (stereo not shown) [Prodrug XLIII]")
0.00744

---

assay_notes: Stability in human subcutaneous skin homogenate
experimental_setup: human
assay_readout: AUC (µmol·min/L)

>>> recorded_result("CCCCCC(CCC1C(OC(=O)OC)CC2Cc3c(cccc3OCC(=O)O)CC21)OC(=O)OC (stereo not shown) [Prodrug LXXI, treprostinil dicarbonate]")
0.3108
>>> recorded_result("CCCCCC(CCC1C(O)CC2Cc3c(cccc3OCC(=O)O)CC21)OC(=O)CCC(=O)N1CCOCC1 (stereo not shown)")
0.00
>>> recorded_result("CCCCCC(CCC1C(O)CC2Cc3c(cccc3OCC(=O)O)CC21)OC(=O)COc1ccc(OC(F)(F)F)cc1 (stereo not shown)")
17.84
>>> recorded_result("CCCCCC(CCC1C(O)CC2Cc3c(cccc3OCC(=O)O)CC21)OC(=O)C(N)CCCCN (stereo not shown)")
90.48

---

assay_notes: Hydrolysis of prodrugs to treprostinil at pH 6, 7, 8 and 40 C
Format: physicochemical
experimental_setup: pH 7, 40 C., 3 weeks
Listed molecules paired with reported Hydrolysis to treprostinil, % Area, t = 3 weeks
assay_readout: Hydrolysis to treprostinil, % Area, t = 3 weeks (% Area)

>>> recorded_result("CCCCCC(CCC1C(O)CC2Cc3c(cccc3OCC(=O)O)CC21)OC(=O)c1ccc(O)c(O)c1 (stereo not shown) [Prodrug LXVI]")
1.5
>>> recorded_result("CCCCCC(CCC1C(O)CC2Cc3c(cccc3OCC(=O)O)CC21)OC(=O)C12CC3CC(CC(C3)C1)C2 (stereo not shown) [Prodrug LXIX]")
0.00
>>> recorded_result("CCCCCC(CCC1C(O)CC2Cc3c(cccc3OCC(=O)O)CC21)OC(=O)C(C)C (stereo not shown) [Prodrug LXVII]")
0.00
>>> recorded_result("CCCCCC(CCC1C(OC(=O)OC)CC2Cc3c(cccc3OCC(=O)O)CC21)OC(=O)OC (stereo not shown) [Prodrug LXXI, treprostinil dicarbonate]")
0.00

---

Listed molecules paired with reported Trep Concentration 60 min
assay_notes: Stability in liver microsomes, dog
assay_readout: Trep Concentration 60 min (µM)

>>> recorded_result("CCCCCC(CCC1C(O)CC2Cc3c(cccc3OCC(=O)O)CC21)OC(=O)CN (stereo not shown)")
0.664
>>> recorded_result("CCCCCC(CCC1C(O)CC2Cc3c(cccc3OCC(=O)O)CC21)OCC(=O)O (stereo not shown)")
0
>>> recorded_result("CCCCCC(CCC1C(O)CC2Cc3c(cccc3OCC(=O)O)CC21)OCCN1CCOCC1 (stereo not shown)")
0.00389
>>> recorded_result("CCCCCC(CCC1C(O)CC2Cc3c(cccc3OCC(=O)O)CC21)OC(=O)CCN (stereo not shown)")
0.0415
>>> recorded_result("CCCCCC(CCC1C(O)CC2Cc3c(cccc3OCC(=O)O)CC21)OC(=O)N1CCCCC1 (stereo not shown)")
0
>>> recorded_result("CCCCCC(CCC1C(O)CC2Cc3c(cccc3OCC(=O)O)CC21)OC(=O)OCC(=O)O (stereo not shown)")
0
>>> recorded_result("CCCCCC(CCC1C(O)CC2Cc3c(cccc3OCC(=O)O)CC21)OC(=O)OCC (stereo not shown)")
0.92
>>> recorded_result("CCCCCC(O)CCC1C(OC(=O)CCC(=O)O)CC2Cc3c(cccc3OCC(=O)O)CC21 (stereo not shown)")
0
>>> recorded_result("CCCCCC(CCC1C(O)CC2Cc3c(cccc3OCC(=O)O)CC21)OC(=O)COc1ccccc1 (stereo not shown)")
0.728
>>> recorded_result("CCCCCC(CCC1C(O)CC2Cc3c(cccc3OCC(=O)O)CC21)OC(=O)NCCO (stereo not shown)")
0
>>> recorded_result("CCCCCC(CCC1C(O)CC2Cc3c(cccc3OCC(=O)O)CC21)OC(=O)N1CCC(O)CC1 (stereo not shown)")
0
>>> recorded_result("CCCCCC(CCC1C(O)CC2Cc3c(cccc3OCC(=O)O)CC21)OC(=O)C(C)(C)C (stereo not shown)")
0.558
>>> recorded_result("CCCCCC(CCC1C(O)CC2Cc3c(cccc3OCC(=O)O)CC21)OC(=O)CO (stereo not shown)")
0.899
>>> recorded_result("CCCCCC(CCC1C(O)CC2Cc3c(cccc3OCC(=O)O)CC21)OC(=O)c1ccc(O)c(O)c1 (stereo not shown)")
0.00602
>>> recorded_result("CCCCCC(CCC1C(O)CC2Cc3c(cccc3OCC(=O)O)CC21)OC(=O)c1ccc(OC(F)(F)F)cc1 (stereo not shown)")
0.342
>>> recorded_result("CCCCCC(CCC1C(O)CC2Cc3c(cccc3OCC(=O)O)CC21)OP(=O)(O)O (stereo not shown)")
0.75
>>> recorded_result("CCCCCC(CCC1C(O)CC2Cc3c(cccc3OCC(=O)O)CC21)OC(=O)C(N)CCCCN (stereo not shown)")
0.0788
>>> recorded_result("CCCCCC(CCC1C(O)CC2Cc3c(cccc3OCC(=O)O)CC21)OC(=O)c1ccc(O)cc1 (stereo not shown)")
0.0382
>>> recorded_result("CCCCCC(CCC1C(O)CC2Cc3c(cccc3OCC(=O)O)CC21)OCCC (stereo not shown)")
0.0841
>>> recorded_result("CCCCCC(CCC1C(O)CC2Cc3c(cccc3OCC(=O)O)CC21)Oc1ccccc1C(=O)O (stereo not shown)")
0
>>> recorded_result("CCCCCC(CCC1C(O)CC2Cc3c(cccc3OCC(=O)O)CC21)OC(=O)CC (stereo not shown)")
0.743
>>> recorded_result("CCCCCC(CCC1C(O)CC2Cc3c(cccc3OCC(=O)O)CC21)OC(N)=O (stereo not shown)")
0.323
>>> recorded_result("CCCCCC(CCC1C(O)CC2Cc3c(cccc3OCC(=O)O)CC21)OC(=O)c1cccc(O)c1 (stereo not shown)")
0.059
>>> recorded_result("CCCCCC(CCC1C(O)CC2Cc3c(cccc3OCC(=O)O)CC21)OCC (stereo not shown)")
0.0499
>>> recorded_result("CCCCC[C@@H](CC[C@@H]1[C@H]2Cc3cccc(OCC(=O)O)c3C[C@H]2C[C@H]1O)OC(=O)[C@@H](N)C(C)C")
0.0334
>>> recorded_result("CCCCCC(CCC1C(O)CC2Cc3c(cccc3OCC(=O)O)CC21)OC(=O)NCC(=O)O (stereo not shown)")
0
>>> recorded_result("CCCCCC(CCC1C(O)CC2Cc3c(cccc3OCC(=O)O)CC21)OC(=O)C1CCCN1 (stereo not shown)")
0.483
>>> recorded_result("CCCCCC(CCC1C(O)CC2Cc3c(cccc3OCC(=O)O)CC21)OC(=O)CCC(=O)O (stereo not shown)")
0.2
>>> recorded_result("CCCCCC(CCC1C(O)CC2Cc3c(cccc3OCC(=O)O)CC21)OC(=O)OC(C)C (stereo not shown)")
0.85
>>> recorded_result("CCCCCC(CCC1C(OC(=O)CC)CC2Cc3c(cccc3OCC(=O)O)CC21)OC(=O)CC (stereo not shown) [Prodrug LXX, treprostinil dipropionate]")
1.07
>>> recorded_result("CCCCCC(CCC1C(O)CC2Cc3c(cccc3OCC(=O)O)CC21)OC(=O)c1ccccc1O (stereo not shown)")
0.0259
>>> recorded_result("CCCCCC(CCC1C(O)CC2Cc3c(cccc3OCC(=O)O)CC21)OC(=O)C12CC3CC(CC(C3)C1)C2 (stereo not shown)")
0.657
>>> recorded_result("CCCCC[C@H]1CC[C@@H]2[C@H]3Cc4cccc(OCC(=O)O)c4C[C@H]3C[C@H]2OC(=O)O1")
0.86
>>> recorded_result("CCCCCC(CCC1C(O)CC2Cc3c(cccc3OCC(=O)O)CC21)OC(=O)c1ccc(C)cc1 (stereo not shown)")
0.475

Source: patent US12491170B2
